Study target: T1, FmhB (Staphylococcus aureus, UniProt Q2FVZ4 1-421)
T1 sequence: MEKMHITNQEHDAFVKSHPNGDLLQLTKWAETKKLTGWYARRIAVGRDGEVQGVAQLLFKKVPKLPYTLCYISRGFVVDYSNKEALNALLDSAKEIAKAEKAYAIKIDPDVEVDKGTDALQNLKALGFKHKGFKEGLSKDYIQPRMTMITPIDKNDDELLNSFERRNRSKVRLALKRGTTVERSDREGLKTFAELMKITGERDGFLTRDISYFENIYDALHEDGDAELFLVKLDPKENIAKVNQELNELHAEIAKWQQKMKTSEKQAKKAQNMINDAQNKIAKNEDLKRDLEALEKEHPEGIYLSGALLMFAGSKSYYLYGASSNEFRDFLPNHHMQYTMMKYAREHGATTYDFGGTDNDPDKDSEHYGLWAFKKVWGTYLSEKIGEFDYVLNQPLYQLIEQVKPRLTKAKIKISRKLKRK
Assay protocol: competition
pKi: −log10 of the molar value.
Please mark YES if the recorded pKi is equal to or greater than 8, and NO if it falls below.

pKi >= 8 for CHIM4 analogue (P1 with NP2 anticodon stem-loop) (structured_RNA, 2'-triazole-nonadiyne on terminal A; penultimate C is dC) RNA: GCAGAAGUAGUUCAGCGGUAGAAUACGUUCCUUCCCGGAACGGGGUCGCGGGUUCGAAUCCCGUCUUCUGCUCCA ? NO

Determine whether this binder has pKi no lower than 8: CHIM2 analogue (P1 with NP2 acceptor stem) (structured_RNA, 2'-triazole-nonadiyne on terminal A; penultimate C is dC) RNA: GCGGGAGUAGUUCAGCGGUAGAAUACAACCUUGCCAAGGUUGGGGUCGCGGGUUCGAAUCCCGUCUUCCGCUCCA NO

In plain terms: is recorded pKi at least 8 for CHIM5 analogue (NP2 with P1 anticodon stem-loop and acceptor stem) (structured_RNA, 2'-triazole-nonadiyne on terminal A; penultimate C is dC) RNA: GCAGAAGUAGUUCAACUUUUAGAACACAACCUUGCCAAGGUUGAGGUAUAGGUGUAAAUCCUAUCUUCUGCUCCA ? NO

Hi, just wondering whether CHIM3 analogue (NP2 with P1 anticodon stem-loop) (structured_RNA, 2'-triazole-nonadiyne on terminal A; penultimate C is dC) RNA: GCGGGAGUAGUUCAACUUUUAGAACACAACCUUGCCAAGGUUGAGGUAUAGGUGUAAAUCCUAUCUUCCGCUCCA shows pKi of 8 or higher. YES
